molecular target: FGFR3 (UniProt P22607); test: phosphorylation enrichment, bacterial display (enrichment ratio); higher = better substrate or ligand; peptides without Tyr show the background;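 further: 11-residue human phosphosite peptides and single-mutation variants displayed on the E. coli surface, counted by deep sequencing, each peptide's frequency after selection divided by its frequency in the unselected input library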;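 further: frequency after pTyr selection over input frequency; kinase dosed for 20-30% of maximal phosphorylation in three min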
Sequence (P22607 whole entry, looked up): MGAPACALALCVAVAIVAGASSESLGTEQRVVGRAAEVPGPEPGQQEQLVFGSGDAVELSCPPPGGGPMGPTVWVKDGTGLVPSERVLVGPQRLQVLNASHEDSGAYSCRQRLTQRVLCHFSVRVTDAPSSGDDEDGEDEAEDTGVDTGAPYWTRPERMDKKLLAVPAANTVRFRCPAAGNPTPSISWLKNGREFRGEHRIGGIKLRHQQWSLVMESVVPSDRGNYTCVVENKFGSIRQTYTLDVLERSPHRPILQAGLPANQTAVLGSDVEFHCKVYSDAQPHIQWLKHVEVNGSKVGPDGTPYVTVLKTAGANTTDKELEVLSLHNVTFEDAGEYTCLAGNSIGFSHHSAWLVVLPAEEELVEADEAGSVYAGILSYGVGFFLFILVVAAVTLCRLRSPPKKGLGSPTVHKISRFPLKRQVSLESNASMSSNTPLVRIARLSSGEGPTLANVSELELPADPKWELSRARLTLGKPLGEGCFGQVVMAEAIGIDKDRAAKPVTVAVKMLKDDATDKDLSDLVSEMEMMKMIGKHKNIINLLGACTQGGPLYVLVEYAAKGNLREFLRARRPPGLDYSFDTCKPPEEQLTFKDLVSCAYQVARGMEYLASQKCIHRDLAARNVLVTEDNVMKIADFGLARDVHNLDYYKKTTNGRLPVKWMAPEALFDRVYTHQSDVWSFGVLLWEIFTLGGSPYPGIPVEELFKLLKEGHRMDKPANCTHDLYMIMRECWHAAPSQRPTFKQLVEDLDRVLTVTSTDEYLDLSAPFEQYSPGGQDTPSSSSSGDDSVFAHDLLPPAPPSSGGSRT
Measured property: phosphorylation enrichment
Answers are plain numbers.

Consider the reported phosphorylation enrichment for these sequences:
{"Residue string": "NIFSFYLSRDP [CTSD_Y232]", "Measured property": "phosphorylation enrichment", "Val": 0.697}
{"Residue string": "IVEYAYNDKAI [PUM3_Y259]", "Measured property": "phosphorylation enrichment", "Val": 0.702}
{"Residue string": "NFFDTYIKTCL [IQGAP2_Y1445_YF]", "Measured property": "phosphorylation enrichment", "Val": 0.815}
{"Residue string": "FFRDGCMPRQF [GSS_Y270_Y270C_YF]", "Measured property": "phosphorylation enrichment", "Val": 0.606}
{"Residue string": "RNDRVYQPLRD [CD3D_Y149_Q147R]", "Measured property": "phosphorylation enrichment", "Val": 0.616}
{"Residue string": "EIPTQYEAMAS [GFAP_Y242_R239P]", "Measured property": "phosphorylation enrichment", "Val": 0.694}
{"Residue string": "SHSMRYFYTAV [HLA-C_Y31_D33Y]", "Measured property": "phosphorylation enrichment", "Val": 0.893}
{"Residue string": "QPSPSYDSSRG [TCF12_Y70]", "Measured property": "phosphorylation enrichment", "Val": 0.557}

# return phosphorylation enrichment for each item in the list
1. SDYYAYSPVQE [H6PD_Y449_R453Q]
2. GRVYVYHLSEQ [ITGAE_Y551_R552H]

[14.9, 0.712]

# return phosphorylation enrichment for each item in the list
1. ATARPYSPFII [LRP5_Y1528_R1529S_YF]
2. AIYRRYSKFFD [SH3PXD2B_Y45]
3. GFQPEYGQPAG [SYP_Y278_D277E_YF]
4. CGTPDYIAPEI [PRKCG_Y521]

1. 0.618
2. 0.555
3. 0.917
4. 1.26

# return phosphorylation enrichment for each item in the list
1. DRKRQYELLKL [KIF4B_Y684]
2. EPFEVYRIVPE [IRF8_Y110_K108E_YF]

1: 0.576; 2: 1.03
